- tested_on: mouse melanocortin-4 receptor (mouse, UniProt P56450 1-332)
- Sequence (P56450 whole entry): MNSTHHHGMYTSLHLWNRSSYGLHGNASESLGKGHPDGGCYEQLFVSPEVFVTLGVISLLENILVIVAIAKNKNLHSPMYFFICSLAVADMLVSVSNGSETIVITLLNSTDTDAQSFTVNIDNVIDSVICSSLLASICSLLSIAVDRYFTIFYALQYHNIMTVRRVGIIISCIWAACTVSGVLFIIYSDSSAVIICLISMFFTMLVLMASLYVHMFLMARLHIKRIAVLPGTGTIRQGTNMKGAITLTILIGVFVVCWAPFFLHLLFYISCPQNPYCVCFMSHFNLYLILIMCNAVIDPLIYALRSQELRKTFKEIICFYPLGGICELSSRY
- run_description: cell-based or functional assay
Square brackets hold non-standard residues; d marks the D form.
antagonist pA2 (Schild, agonist NDP-MSH): recorded values
// return a plain number; no unit text

1. cyclo(PRFFWAF[dP]) (SMILES C[C@@H]1NC(=O)[C@H](Cc2c[nH]c3ccccc23)NC(=O)[C@H](Cc2ccccc2)NC(=O)[C@H](Cc2ccccc2)NC(=O)[C@H](CCCNC(=N)N)NC(=O)[C@@H]2CCCN2C(=O)[C@H]2CCCN2C(=O)[C@H](Cc2ccccc2)NC1=O) [c[Pro-Arg-Phe-Phe-Trp-Ala-Phe-DPro]]
6.81

Inquiry: Returns the measured antagonist pA2 (Schild, agonist NDP-MSH) for the input binder. Input: cyclo(PRFFAAF[dP]) [c[Pro-Arg-Phe-Phe-Ala-Ala-Phe-DPro]]
Reply text: 7.32

Inquiry: Let us now turn to cyclo(PRFFNLF[dP]) (SMILES CC(C)C[C@@H]1NC(=O)[C@H](CC(N)=O)NC(=O)[C@H](Cc2ccccc2)NC(=O)[C@H](Cc2ccccc2)NC(=O)[C@H](CCCNC(=N)N)NC(=O)[C@@H]2CCCN2C(=O)[C@H]2CCCN2C(=O)[C@H](Cc2ccccc2)NC1=O) [c[Pro-Arg-Phe-Phe-Asn-Leu-Phe-DPro]]
Reply text: 6.18
